The origin of these recorded values is patent US20220089592A1.

Can you tell me IC50 for the items I'm about to list?
- tested system: IRAK4 (Homo sapiens)
- method summary: 2-hour 10 μM ATP Biochemical Assay (MesoScale Detection format; IRAK4 phosphorylation of biotin labeled IRAK1 activation loop peptide)
- stated conditions: IRAK4 MSD BIOCHEMICAL (10 μM ATP) IC50 (μM), 1 nM IRAK4, 2 hours
Give bare numbers, in µM.

Recorded results for 5 compounds are shown here.
CCOc1cc2nc(CC3CCOC3)cn2cc1NC(=O)c1ccn(C(F)F)n1 (centres unmarked) [Example 124]    0.002
CCOc1cc2nc(C(C)(C)CO)cn2cc1NC(=O)c1cccc(C(F)F)n1 [Example 17]    0.005
CCOc1cc2nc([C@H]3C[C@H](OC(C)C)C3)cn2cc1NC(=O)c1cccc(C(F)F)n1 [Example 135]    0.002
CCOc1cc2nc(C3CN(C)C3)cn2cc1NC(=O)c1cccc(C(F)(F)F)n1 [Example 65]    0.001
CCOc1cc2nc(C3CCOCC3)cn2cc1NC(=O)c1csc(C2CC2)n1 [Example 203]    0.001

Field: IC50. Fill in for each record below.
1. N#CCOc1cc2nc(C3CCOCC3)cn2cc1NC(=O)c1cccc(C(F)F)n1 [Example 172]
2. CCOc1cc2nc(C3CC3)cn2cc1NC(=O)c1cccnc1OCC(F)(F)F [Example 71]
3. CCOc1nc2nc(C3CCOCC3)cn2cc1NC(=O)c1cccc(OC)n1 [Example 368]

Response:
[0.002, 0.66, 0.008]

###

- tested system: IRAK4 (Homo sapiens, UniProt Q9NWZ3)
- Sequence (Q9NWZ3 whole entry): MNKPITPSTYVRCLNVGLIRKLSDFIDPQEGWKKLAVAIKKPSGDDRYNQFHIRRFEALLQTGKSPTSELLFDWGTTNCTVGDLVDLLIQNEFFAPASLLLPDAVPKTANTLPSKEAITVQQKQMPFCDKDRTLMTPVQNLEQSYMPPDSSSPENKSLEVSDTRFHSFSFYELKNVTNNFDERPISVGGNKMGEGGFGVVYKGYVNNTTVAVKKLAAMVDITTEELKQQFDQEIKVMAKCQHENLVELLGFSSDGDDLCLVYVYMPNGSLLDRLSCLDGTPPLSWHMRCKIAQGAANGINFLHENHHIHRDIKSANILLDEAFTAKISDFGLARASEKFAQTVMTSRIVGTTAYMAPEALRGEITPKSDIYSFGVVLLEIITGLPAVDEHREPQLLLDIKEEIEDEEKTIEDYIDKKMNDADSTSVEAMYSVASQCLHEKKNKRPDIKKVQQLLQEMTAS
- method summary: 2-hour 1 mM ATP IRAK4 Biochemical assay (as above, but with 100 pM IRAK4 and 1 mM ATP)
- stated conditions: IRAK4 MSD BIOCHEMICAL (1 mM ATP) IC50 (μM), 100 pM IRAK4, 2 hours
attribute measured: IC50 (µM)
Give bare numbers, in µM.

Solved cases below.
CCOc1cc2nc(CO)cn2cc1NC(=O)c1cccc(C(F)(F)F)n1 [Example 18]    0.014
O=C(Nc1cn2cc(C3CCOCC3)nc2cc1OCC1CC1(F)F)c1cccc(C(F)F)n1 (stereo not shown) [Example 196]    0.001
CCOc1cc2nc(C3CCOCC3)cn2cc1NC(=O)c1cccc(COC)n1 [Example 364]    0.013

Prompt: Look up IC50: CC(C)Oc1cc2nc(C3CCOC3)cn2cc1NC(=O)c1cccc(C(F)F)n1 (stereo not shown) [Example 530, 2,2,2-trifluoroacetate]
Response: 0.045

###

- tested system: UniProtKB Q9NWZ3
- method summary: 2-hour 1 mM ATP IRAK4 Biochemical assay (as above, but with 100 pM IRAK4 and 1 mM ATP)
- stated conditions: IRAK4 MSD BIOCHEMICAL (1 mM ATP) IC50 (μM), 100 pM IRAK4, 2 hours
attribute measured: IC50 (µM)
Numbers only, in µM.

As a guide, the following entries are already answered.
COc1nc(NC(=O)c2cccc(C(F)F)n2)cn2cc(C3CC3)nc12 [Example 562, 2,2,2-trifluoroacetate]    0.053
CCOc1cc2nc(C3CCOCC3)cn2cc1NC(=O)c1ccn(C2CC2(F)F)n1 (stereo not shown)    0.009

List IC50 for every entry below, keeping the order given.
1. COCCCc1cn2cc(NC(=O)c3cccc(C(F)F)n3)cc(OC)c2n1
2. CC(C)Oc1c(NC(=O)c2ccn(C(C)C)n2)cn2cc(C34COC(C)(C3)C4)nc2c1F [Example 546, 2,2,2-trifluoroacetate]
3. CCOc1cc(NC(=O)c2cccc(C(F)F)n2)cn2cc(C3CCCOC3)nc12 (single isomer, unassigned) [Example 285]
4. COc1cc(NC(=O)c2cccc(C(F)F)n2)cn2cc([C@]3(C)C[C@@H](OC)C3)nc12
5. C[C@@H]1C[C@H](Oc2cc3nc(C4CCOCC4)cn3cc2NC(=O)c2cccc(C(F)F)n2)C[C@H](C)O1
6. CC1(COc2cc3nc(C4CC4)cn3cc2NC(=O)c2cccc(C(F)F)n2)COC1
7. COc1c(F)cccc1C(=O)Nc1cn2cc(C34CCC(C)(C3)OC4)nc2c(OC)n1 (stereo not shown) [Example 466, 2,2,2-trifluoroacetate]

Response:
0.007
0.001
0.006
0.016
0.001
0.014
0.059

Could you report IC50 for every entry in the following list?
1. N#CCOc1cc2nc(C3CCOCC3)cn2cc1NC(=O)c1cccc(C(F)F)n1
2. COc1cccc(C(=O)Nc2cn3cc(C45COC(C)(C4)C5)nc3c(F)c2OC(C)C)n1
3. CCOc1cc2nc(Cc3ccn(C)n3)cn2cc1NC(=O)c1cccc(C(F)F)n1
4. CCOc1cc2nc(CCC(F)F)cn2cc1NC(=O)c1cccc(C(F)F)n1
5. COc1ccccc1C(=O)Nc1cn2cc(C34CC(C#N)(C3)C4)nc2cc1OC(C)C

Response:
1. 0.004
2. 0.002
3. 0.015
4. 0.001
5. 0.006

Provide IC50 values for the following items, in order.
1. CCOc1cc2nc(C3CCOCC3)cn2cc1NC(=O)c1cccc(C)c1F
2. CC(Oc1cc2nc(C34COC(C)(C3)C4)cn2cc1NC(=O)c1ccn(C)n1)C(F)(F)F (stereo not shown)

Response:
1: 0.007; 2: 0.001
